target: Phosphatidylinositol 4,5-bisphosphate 3-kinase catalytic subunit delta isoform (Homo sapiens, UniProt O00329); assay: Binding affinity to PI3Kdelta (unknown origin); conditions: read-out: Ki(app)
Sequence (O00329 whole entry, canonical isoform): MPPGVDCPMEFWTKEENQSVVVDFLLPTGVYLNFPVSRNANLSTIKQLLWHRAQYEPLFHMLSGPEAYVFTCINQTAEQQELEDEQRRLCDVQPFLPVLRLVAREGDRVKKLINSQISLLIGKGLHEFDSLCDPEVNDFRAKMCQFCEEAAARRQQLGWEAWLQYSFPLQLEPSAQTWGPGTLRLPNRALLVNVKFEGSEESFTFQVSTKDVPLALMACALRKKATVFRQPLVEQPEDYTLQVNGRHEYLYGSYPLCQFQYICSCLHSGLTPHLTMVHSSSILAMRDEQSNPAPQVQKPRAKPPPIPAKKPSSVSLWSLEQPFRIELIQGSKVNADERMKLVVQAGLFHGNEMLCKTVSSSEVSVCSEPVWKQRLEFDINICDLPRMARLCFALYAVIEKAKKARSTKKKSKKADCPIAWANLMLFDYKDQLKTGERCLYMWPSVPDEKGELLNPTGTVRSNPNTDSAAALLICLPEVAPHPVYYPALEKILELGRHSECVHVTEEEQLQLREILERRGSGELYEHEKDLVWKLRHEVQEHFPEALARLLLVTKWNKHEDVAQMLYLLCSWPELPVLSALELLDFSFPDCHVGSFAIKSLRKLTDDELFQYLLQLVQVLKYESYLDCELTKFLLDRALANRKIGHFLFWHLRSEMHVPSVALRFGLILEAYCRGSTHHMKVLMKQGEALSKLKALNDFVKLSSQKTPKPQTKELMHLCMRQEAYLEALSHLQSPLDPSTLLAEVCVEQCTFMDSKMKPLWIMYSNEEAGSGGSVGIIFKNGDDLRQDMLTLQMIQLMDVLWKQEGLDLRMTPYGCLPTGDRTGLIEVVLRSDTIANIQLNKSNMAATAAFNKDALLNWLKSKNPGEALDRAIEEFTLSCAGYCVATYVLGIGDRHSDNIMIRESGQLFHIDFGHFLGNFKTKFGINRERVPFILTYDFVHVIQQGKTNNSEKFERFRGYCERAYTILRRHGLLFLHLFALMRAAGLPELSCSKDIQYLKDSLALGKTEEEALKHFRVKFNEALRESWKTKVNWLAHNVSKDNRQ
pKi: −log10 of the molar value.
value-type: pKi

Please review the entries below; each comes with its answer.
Cc1nc(-c2cn3c(n2)-c2cc([C@H](C)N4CCN(C(C)(C)C)CC4)ncc2OCC3)n(C(C)C)n1: 8.72
CC(C)n1ncnc1-c1cn2c(n1)-c1cc(S(=O)(=O)N3CCN(C(C)(C)C)CC3)ccc1OCC2: 8.92
CC(C)n1ncnc1-c1cn2c(n1)-c1cc(CN3CCN(C(C)(C)C)CC3)ccc1OCC2: 8.60
Cc1nc(-c2cn3c(n2)-c2cc([C@@H](C)N4CCN(C(C)(C)C)CC4)c(F)cc2OCC3)n(C(C)C)n1: 9.11

A = Cc1nc(-c2cn3c(n2)-c2cc([C@H](C)N4CCN(C(C)(C)C)CC4)c(F)cc2OCC3)n(C(C)C)n1
B = CC(C)n1ncnc1-c1cn2c(n1)-c1cc([S@@+]([O-])C3CCN(C(C)(C)C)CC3)ccc1OCC2
C = CC(C)n1ncnc1-c1cn2c(n1)-c1cc(CN3CCC(C(C)(C)O)CC3)ccc1OCC2
**Q:** Which order do these items take when sorted by rising pKi? List them. Form entry: ranked labels (order as requested).
**A:** C, A, B
(C: 7.70, A: 8.62, B: 9.09)

Origin of measurements: ChEMBL document CHEMBL4130452
